Target: HLA-DR13 (DRB1*1301) (human)
Assay: competition binding
Settings: chains peptide; modification not given
pIC50: −log10 of the molar value.
observed property: pIC50

// solved cases for pIC50 follow
# binder, pIC50
rows = [
    ("DPNIRTGVRTITTGSPITYSTYGKFLADGG [19N 1275-1304]", "< 4.00"),
    ("RSPVFTDNSSPPVVPQSFQVAHLHAPTGSGKSTK [17N 1206-1239]", "< 4.00"),
]

Prompt: For the binder shown here, KPGIYRFVAPGERPSGMFD [27N 1495-1513] , give the reported pIC50.
Completion: < 4.00
